Reference source: PubChem BioAssay (NCATS)

# assay.notes: qHTS assay for cell viability of HEK293 cells (AID 743288); also: % is scaled to controls: 0 for no effect and ±100 for the full control effect; nearly all actives have a fitted effect of over 50% in size
# condition: ATP luminescence (CellTiter-Glo), 18 h; stronger effect = lower value
Inconclusive results are not listed. The source made the active and inactive calls. Calls follow the shape of the dose curve; as a rule, active = well fitted cell-killing curve with a large enough effect; inconclusive = small, poorly fitted or top-dose-only effect, or effect the other way; inactive = flat fitted curve, though single readings scatter.
Listed compounds paired with reported max response

As a guide, the following entries are already answered.
# compound, max response
data = [
    ("O=C(O[C@@H]1Cc2c(O)cc(O)cc2O[C@@H]1c1cc(O)c(O)c(O)c1)c1cc(O)c(O)c(O)c1", "-1.55% (inactive)"),
    ("c1ccccc1", "0.515% (inactive) [middle of 4 runs]"),
    ("C=CC(=C)CCC=C(C)C", "1.18% (inactive)"),
    ("COc1cc(/C=C/c2ccccc2)oc(=O)c1", "-23% (inactive)"),
    ("C[Si](C)(C)O[Si](C)(C)O[Si](C)(C)C", "-3.28% (inactive)"),
    ("C/C=C\\c1ccc(OC)cc1", "8.66% (inactive)"),
    ("c1ccc2scnc2c1", "11.2% (inactive)"),
    ("C=C(C)C1CC=C(C)C(O)C1 (configuration not stated)", "0.258% (inactive)"),
]

Task: Entry `C1OCOCO1` has what max response?
Result: -3.72% (inactive)

Task: So what does the record say about max response for C=CC(C)(CCC=C(C)C)OC(C)=O (configuration not stated) ?
Result: -14.2% (inactive)

Task: max response lookup needed for `O=C(O)c1ccccc1` , thanks.
Result: -1.04% (inactive)

Task: Bench note: what max response did `CC1(C)S[C@@H]2[C@H](NC(=O)COc3ccccc3)C(=O)N2[C@H]1C(=O)O` show?
Result: -6.9% (inactive)

Task: Could you tell me which max response is on file for `O=C(/C=C/c1ccc(O)c(O)c1)O[C@@H](C(=O)O)[C@@H](OC(=O)/C=C/c1ccc(O)c(O)c1)C(=O)O` ?
Result: -0.791% (inactive)

Task: Requested field: max response. Item: CCC(O)OC(O)CC (configuration not stated)
Result: -2.73% (inactive) [middle of 4 runs]

Task: Find the recorded max response belonging to `O=C1CCc2ccccc2O1` and report it.
Result: -0.285% (inactive)

Task: Which max response is listed for `C=Cc1ccccc1Cl` ?
Result: 6.21% (inactive)

Task: Request the reported max response associated with `O=S(=O)(O)c1ccccc1`
Result: 8.35% (inactive)

* * *

# assay.target: Glutathione peroxidase 1 (Homo sapiens) (UniProt P07203)
# Sequence (P07203 whole entry, looked up): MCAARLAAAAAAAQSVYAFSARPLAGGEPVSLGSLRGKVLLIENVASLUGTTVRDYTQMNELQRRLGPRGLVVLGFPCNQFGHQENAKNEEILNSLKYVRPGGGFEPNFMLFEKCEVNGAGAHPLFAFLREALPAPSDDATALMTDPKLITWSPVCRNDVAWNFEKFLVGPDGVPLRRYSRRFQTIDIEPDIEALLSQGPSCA
# assay.notes: Primary qHTS Assay for Inhibitors of Recombinant Selenoprotein Glutathione Peroxidase 1 (GPX1) (AID 1845191); also: nearly all actives have a fitted effect of over 65% in size
# condition: recombinant GPX1, GR-coupled NADPH fluorescence, 15 min; series mostly up to 48.8 µM
Records with an inconclusive call do not appear. Active and inactive are the calls of the source. The call rests on the fitted dose curve; in most records, active means well fitted inhibition curve with a large enough effect; inconclusive means small, poorly fitted or top-dose-only effect; inactive means flat fitted curve, though single readings scatter.
Thanks in advance; please answer with one of these: class 1 (active), class 0 (inactive)

Example entries and their recorded answers appear below.
# compound, classification
records = [
    ("Cc1ccc(N2CCN(C(=O)CCc3c(C)nc4c(c3C)c(=O)n(C)c(=O)n4C)CC2)c(C)c1", "class 0"),
    ("CCCCCCCCCCCCCCCCCC(=O)NCCCC[C@H](NC(=O)CC[C@@H](NC(=O)[C@H](C)NC(=O)[C@@H](C)O[C@H]1[C@H](O)[C@@H](CO)OC(O)[C@@H]1NC(C)=O)C(N)=O)C(=O)O (some centres undefined)", "class 0"),
    ("O=C(O)c1ccc2nc(-c3cc(Cl)cc(Cl)c3)oc2c1", "class 0"),
    ("CCCCCCC(COC(=O)c1cccnc1)(COC(=O)c1cccnc1)COC(=O)c1cccnc1", "class 0"),
    ("C[C@H]1[C@H](OC(=O)CCC(=O)O)O[C@@H]2O[C@@]3(C)CC[C@H]4[C@H](C)CC[C@@H]1[C@@]24OO3", "class 0"),
]

Task: Check the results log: what was the call for `CC(C)OC(=O)CCC/C=C\C[C@@H]1[C@@H](/C=C/[C@@H](O)COc2cccc(C(F)(F)F)c2)[C@H](O)C[C@@H]1O` ?
Result: class 0

Task: Which outcome was entered for the compound `CNC(=O)c1ccccc1Oc1nc(Nc2cc(OC)c(OC)c(OC)c2)ncc1Br` in this test?
Result: class 0

Task: # outcome recorded in this test, key = `COC(=O)N[C@H](C(=O)N1CC2(CC2)C[C@H]1c1ncc(-c2ccc3c(c2)C(F)(F)c2cc(-c4ccc5nc([C@@H]6[C@H]7CC[C@H](C7)N6C(=O)[C@@H](NC(=O)OC)C(C)C)[nH]c5c4)ccc2-3)[nH]1)C(C)C`
Result: class 0

Task: Query: recorded result category for `O=C1CCC[C@@H]2[C@@H]3CCC[N@+]4([O-])CCC[C@H](CN12)[C@H]34` in this test
Result: class 0

Task: Recorded call for `Cc1cncc(CN2CCC(=C3c4ccc(Cl)cc4CCc4cccnc43)CC2)c1` ?
Result: class 0

Task: Outcome logged for `Nc1c(C(=O)Nc2ccc(F)cc2)sc2nc(-c3cccs3)cc(C(F)(F)F)c12` in this assay:
Result: class 1

Task: # lookup: test call for `Cc1cc2nc3c(=O)[nH]c(=O)nc-3n(C[C@H](O)[C@H](O)[C@H](O)COP(=O)(O)OP(=O)(O)OC[C@H]3O[C@@H](n4cnc5c(N)ncnc54)[C@H](O)[C@H]3O)c2cc1C`
Result: class 0

Task: Could you check what this test reported for `CC(=O)O[C@]1(C(C)=O)CC[C@H]2[C@@H]3C=C(C)C4=CC(=O)CC[C@@H]4[C@H]3CC[C@@]21C` ?
Result: class 0

Task: In this assay, the call recorded for C=C(NC(=O)C(=C)NC(=O)c1csc(C2=N[C@H]3c4csc(n4)[C@H]4NC(=O)c5csc(n5)[C@H]([C@@](C)(O)[C@@H](C)O)NC(=O)[C@H]5CSC(=N5)C(=CC)NC(=O)[C@H]([C@@H](C)O)NC(=O)c5csc(n5)[C@]3(CC2)NC(=O)[C@H](C)NC(=O)C(=C)NC(=O)[C@H](C)NC(=O)[C@H](C(C)CC)N[C@@H]2C=Cc3c([C@H](C)O)cc(nc3[C@H]2O)C(=O)O[C@@H]4C)n1)C(N)=O (some centres undefined) was what?
Result: class 0

* * *

# assay.target: Rap guanine nucleotide exchange factor 3 (Homo sapiens) (UniProt O95398)
# Sequence (O95398 whole entry, looked up): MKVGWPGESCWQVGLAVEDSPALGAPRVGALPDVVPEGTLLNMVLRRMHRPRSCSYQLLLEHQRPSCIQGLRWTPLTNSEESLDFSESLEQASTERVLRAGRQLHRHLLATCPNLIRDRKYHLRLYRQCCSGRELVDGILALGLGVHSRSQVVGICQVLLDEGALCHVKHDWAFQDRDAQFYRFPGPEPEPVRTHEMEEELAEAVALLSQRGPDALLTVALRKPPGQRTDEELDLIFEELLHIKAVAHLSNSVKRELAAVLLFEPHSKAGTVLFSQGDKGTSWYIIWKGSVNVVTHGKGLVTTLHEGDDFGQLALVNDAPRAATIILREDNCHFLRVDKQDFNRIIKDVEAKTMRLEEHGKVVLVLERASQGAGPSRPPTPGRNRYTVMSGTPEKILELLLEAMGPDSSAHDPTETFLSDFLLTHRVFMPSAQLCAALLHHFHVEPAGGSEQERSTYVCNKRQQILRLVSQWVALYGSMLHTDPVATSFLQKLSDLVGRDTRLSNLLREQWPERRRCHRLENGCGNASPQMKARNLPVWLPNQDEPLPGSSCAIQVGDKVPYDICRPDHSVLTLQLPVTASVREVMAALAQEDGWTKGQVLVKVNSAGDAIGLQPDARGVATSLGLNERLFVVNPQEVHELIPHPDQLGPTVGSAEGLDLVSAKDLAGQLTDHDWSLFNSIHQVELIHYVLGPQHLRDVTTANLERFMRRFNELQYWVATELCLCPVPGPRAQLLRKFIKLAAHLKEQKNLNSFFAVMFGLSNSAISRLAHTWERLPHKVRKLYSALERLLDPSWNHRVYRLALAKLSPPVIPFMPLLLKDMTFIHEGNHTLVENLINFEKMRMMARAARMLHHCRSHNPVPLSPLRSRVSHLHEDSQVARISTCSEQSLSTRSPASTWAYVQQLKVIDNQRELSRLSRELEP
# assay.notes: Confirmatory qHTS for antagonist of cAMP-regulated guanine nucleotide exchange factor 3 (EPAC1) (AID 1645880); also: nearly all actives have a fitted effect of over 55% in size
# condition: EPAC1 Rap1B-BODIPY-GDP exchange, fluorescence
Results filed as inconclusive are left out. The source made the active and inactive calls. Calls come from the whole dose curve; as a rule, active = well fitted inhibition curve with a large enough effect; inconclusive = small, poorly fitted or top-dose-only effect; inactive = no such curve, though single readings can be large or run the other way.
Mark one answer only. Choices: active, inactive

Task: Would you mind telling me which call this test gave `CCOc1ccc2c(ccc(/C=C/c3cc(C)c4cccnc4c3O)[n+]2C)c1` ?
Result: active

Task: For this compound, state the assay outcome: `Cc1ccc(N2C(=O)c3cccc4c(N)ccc(c34)C2=O)c2cccnc12`
Result: inactive

Task: Which result was noted for this compound in the test: `COc1ccc(-c2nc(C)ncc2-c2ccc(Cl)cc2)c(O)c1`
Result: inactive

Task: Each compound tested received a call. Report the one for COc1ccccc1C1CC(=O)Oc2cc(C)cc(C)c21 (centres undefined) .
Result: inactive

* * *

# assay.target: Cytochrome P450 2C19 (Homo sapiens)
# assay.notes: qHTS Assay for Inhibitors and Substrates of Cytochrome P450 2C19 (AID 899); also: nearly all actives have a fitted effect of over 60% in size
# condition: recombinant CYP2C19, luciferin-H EGE luminescence; series mostly up to 57.1 µM
Results filed as inconclusive are left out. Activity calls are given as the source filed them. The call rests on the fitted dose curve; in most records, active means well fitted inhibition curve with a large enough effect; inconclusive means small, poorly fitted or top-dose-only effect; inactive means no such curve, though single readings can be large or run the other way.
// classify into true = active, false = inactive

# structure.smiles.string, classification
rows = [
    ("COc1cccc(Cn2c(=O)cnc3cnc(Nc4cccc(OC)c4)nc32)c1", "true"),
    ("COc1ccc2[nH]cc(CCNc3nc(-c4ccccc4OC)nc4ccccc34)c2c1", "true"),
]

Task: Each compound tested received a call. Report the one for `Clc1ccccc1-c1nc(Nc2ccncc2)c2ccccc2n1` .
Result: true

Task: Hi, do you know how `COc1ccc2[nH]cc(CCNc3ncnc4ccc(-c5cccc(C#N)c5)cc34)c2c1` came out in this test?
Result: true

Task: Just curious, what result did `COc1cccc(Cn2c(=O)c(CCc3ccccc3)nc3cnc(N(C)C)nc32)c1` get here?
Result: true

Task: Just curious, what result did `N=C(N)c1ccc(N=Nc2c(O)ccc3c2[nH]c2ccccc23)cc1` get here?
Result: true

* * *

# assay.target: Cytochrome P450 1A2 (Homo sapiens) (UniProt P05177)
# Sequence (P05177 whole entry, looked up): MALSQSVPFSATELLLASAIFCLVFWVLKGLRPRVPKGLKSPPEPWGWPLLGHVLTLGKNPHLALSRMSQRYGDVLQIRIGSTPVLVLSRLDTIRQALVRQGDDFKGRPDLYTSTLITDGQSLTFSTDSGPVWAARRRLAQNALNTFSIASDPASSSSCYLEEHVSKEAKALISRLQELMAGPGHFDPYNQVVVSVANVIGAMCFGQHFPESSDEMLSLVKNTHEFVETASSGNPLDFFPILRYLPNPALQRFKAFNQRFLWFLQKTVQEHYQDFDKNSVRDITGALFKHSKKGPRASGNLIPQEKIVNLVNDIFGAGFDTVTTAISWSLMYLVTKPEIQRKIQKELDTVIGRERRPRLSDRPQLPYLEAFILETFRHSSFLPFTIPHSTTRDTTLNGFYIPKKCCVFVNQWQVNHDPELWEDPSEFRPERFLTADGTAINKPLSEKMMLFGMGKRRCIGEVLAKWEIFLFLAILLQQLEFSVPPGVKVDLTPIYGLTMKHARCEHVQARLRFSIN
# assay.notes: qHTS for inhibitors of CYPIA2 against the NCATS DSHEA and TCM libraries (AID 1919976)
# condition: recombinant CYP1A2 enzyme activity, luminescence; series mostly up to 37 µM
Inconclusive results are not listed. Activity calls are given as the source filed them. The call rests on the fitted dose curve; in most records, active means well fitted inhibition curve with a large enough effect; inconclusive means small, poorly fitted or top-dose-only effect; inactive means no such curve, though single readings can be large or run the other way.
Field 'call' accepts active, inactive

Known results for compounds:
# compound, classification
rows = [
    ("CC1=CCC(=C(C)C)CC1", "inactive"),
    ("CC1(C)C2CCC1(C)C(O)C2 (stereo unspecified)", "inactive"),
    ("CC1=CC[C@H](C(C)C)C=C1", "inactive"),
    ("CC1=CCC(O)(C(C)C)CC1 (stereo unspecified)", "inactive"),
    ("C=C1CC/C=C(/C)CC[C@@H]2[C@@H]1CC2(C)C", "active"),
]

Task: For `CC(=O)O[C@H]1[C@H](O[C@H]2CC[C@]34C[C@]35CC[C@]3(C)[C@@H]([C@@]6(C)CC[C@@H](C(C)(C)O)O6)[C@@H](O)C[C@@]3(C)[C@@H]5C[C@H](O[C@@H]3O[C@H](CO)[C@@H](O)[C@H](O)[C@H]3O)[C@H]4C2(C)C)OC[C@@H](O)[C@@H]1O` , what call appears in the results of this test?
Result: inactive

Task: Tell me the recorded outcome of this test for CC[C@H](CC[C@@H](C)[C@H]1CCC2C3CCC4C[C@@H](O)CC[C@]4(C)C3CC[C@@]21C)C(C)C (stereo partly specified) .
Result: inactive

Task: Give the logged outcome of this assay for the following compound: `O=C(/C=C/c1ccc(O)c(O)c1)O[C@@H]1C[C@](O)(C(=O)O)C[C@@H](O)[C@H]1O`
Result: inactive

Task: Assay outcome for `CCCCCC(=O)CC` : what was it?
Result: inactive

Task: # fetch the recorded call for CC(C)=CCCC(C)(OC1OC(COC2OC(CO)C(O)C2O)C(O)C(O)C1O)C1CCC2(C)C1C(O)CC1C3(C)CCC(OC4OC(CO)C(O)C(O)C4OC4OC(CO)C(O)C(O)C4O)C(C)(C)C3CCC12C (stereo unspecified) here
Result: inactive

Task: Outcome? CC1(C)CC[C@]2(C(=O)O)CC[C@]3(C)C(=CCC4[C@@]5(C)CC[C@@H](O)C(C)(C)C5CC[C@]43C)C2C1 (stereo partly specified)
Result: inactive

Task: What call does the record list for `CC(C)=CCCC(C)=CCCC(C)=CCCC=C(C)CCC=C(C)CCC=C(C)C` ?
Result: inactive

Task: Per the assay record, what outcome was assigned to `O=c1cc(-c2ccc(O)c(O)c2)oc2cc(O[C@@H]3O[C@@H](CO)[C@@H](O)[C@@H](O)[C@H]3O)cc(O)c12` ?
Result: active

Task: Please state the recorded outcome for this compound: `O=C(O)c1ccccc1`
Result: inactive

Task: Which result was noted for this compound in the test: `CC1=C2[C@H](/C=C(\C)C(=O)O)CC[C@@H](C)[C@H]2CC1`
Result: inactive

Task: # lookup: test call for `O[C@@H]1[C@@H](O)[C@H](OC/C=C/c2ccccc2)O[C@H](CO[C@@H]2OC[C@H](O)[C@H](O)[C@H]2O)[C@H]1O`
Result: inactive

Task: Hi team, can someone confirm the assay call for `CC(C)=CCC[C@](C)(O[C@@H]1O[C@H](CO)[C@@H](O)[C@H](O)[C@H]1O)[C@H]1CC[C@]2(C)[C@@H]1[C@H](O)C[C@@H]1[C@@]3(C)CC[C@H](O)C(C)(C)[C@@H]3[C@@H](O[C@@H]3O[C@H](CO)[C@@H](O)[C@H](O)[C@H]3O[C@@H]3O[C@@H](C)[C@H](O)[C@@H](O)[C@H]3O)C[C@]12C` ?
Result: inactive

Task: Query: recorded result category for `COc1ccc(-c2coc3cc(O[C@@H]4O[C@H](CO)[C@@H](O)[C@H](O)[C@H]4O)ccc3c2=O)cc1` in this test
Result: inactive
